Measured values drawn from the NIST ThermoML archive (doi:10.1021/je060033f) for this set.

Assay: activity coefficient (dimensionless); of the first substance listed, at infinite dilution; xn = mol fraction of the nth substance listed
Settings: 323.15 K; 101 kPa; Liquid; Chromatography; x1 = 0
reported metric: activity coefficient

Known activity coefficient results, listed for orientation:
>  <compound>
C#CCCCC [1-hexyne] + CCCCCCCCCCCC[n+]1ccn(CCCB(O)O)c1.[Br-]

>  <readout number>
1.86

$$$$
>  <compound>
CCCCCCCCC [nonane] + CCCCCCCCCCCC[n+]1ccn(CCCB(O)O)c1.[Br-]

>  <readout number>
6.99

$$$$
>  <compound>
CCc1ccccc1 [ethylbenzene] + C=CC[n+]1ccn(CCCCCCCCCCCC)c1.[Br-]

>  <readout number>
1.77

$$$$

a: CC(C)O [propan-2-ol] + C=CC[n+]1ccn(CCCCCCCCCC)c1.[Br-]
b: CCCCCCCCC [nonane] + C=CC[n+]1ccn(CCCCCCCC)c1.[Br-]
Req: Task for the reader: decide whether a or b has the larger activity coefficient. Could you answer with the label of the item you picked?
Resp: b
